Molecular target: PKR R532W (Homo sapiens, UniProt P30613, R532W)
Sequence (P30613 whole entry R532W): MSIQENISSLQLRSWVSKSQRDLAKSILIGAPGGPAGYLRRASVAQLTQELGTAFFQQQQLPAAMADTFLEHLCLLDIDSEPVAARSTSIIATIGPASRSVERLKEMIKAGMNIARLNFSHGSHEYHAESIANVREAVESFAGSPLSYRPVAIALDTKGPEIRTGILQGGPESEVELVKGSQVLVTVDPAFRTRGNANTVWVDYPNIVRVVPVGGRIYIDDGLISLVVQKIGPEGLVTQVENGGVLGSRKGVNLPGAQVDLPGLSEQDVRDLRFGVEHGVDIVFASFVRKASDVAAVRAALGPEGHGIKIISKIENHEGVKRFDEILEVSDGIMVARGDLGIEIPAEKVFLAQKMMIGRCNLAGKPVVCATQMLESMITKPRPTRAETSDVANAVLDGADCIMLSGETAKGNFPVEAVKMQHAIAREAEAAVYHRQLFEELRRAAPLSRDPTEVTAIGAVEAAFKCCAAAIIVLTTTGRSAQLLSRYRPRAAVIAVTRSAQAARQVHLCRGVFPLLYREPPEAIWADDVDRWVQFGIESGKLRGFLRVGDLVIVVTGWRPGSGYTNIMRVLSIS
Test: PKR R532W Single Point Percent Activation Assay
Type: biochemical
Details: read-out: Act, % 532W
Property: activation at 1 µM; scope: individual compounds

A selection of reference data follows.
| COMPOUND | activation at 1 µM |
| --- | --- |
| C[C@@H]1CN(C[C@H]2CCCO2)CCN1C(=O)c1ccc(NS(=O)(=O)c2cccc3cccnc23)cc1 | 101 to 500% |
| C[C@@H]1CN(C(=O)OCCC2CCCCC2)CCN1C(=O)c1ccc(NS(=O)(=O)c2cccc3cccnc23)cc1 | 1 to 100% |
| C[C@@H]1CN(CC2CCOC2)CCN1C(=O)c1ccc(NS(=O)(=O)c2cccc3cccnc23)cc1 (some centres unmarked) | 101 to 500% |
| COc1cccc(CN2CCN(C(=O)c3ccc(NS(=O)(=O)c4cccc5cccnc45)cc3)[C@@H](C)C2)c1OC | 1 to 100% |
| C[C@H]1CN(C(=O)c2ccc(NS(=O)(=O)c3cccc4cccnc34)cc2)CCN1Cc1ccccc1 | 101 to 500% |
| C[C@@H]1CN(C(=O)OCCC2CCCC2)CCN1C(=O)c1ccc(NS(=O)(=O)c2cccc3cccnc23)cc1 | 1 to 100% |
| O=C(c1ccc(NS(=O)(=O)c2cccc3cccnc23)cc1)N1CCN(C[C@H]2CCOC2)CC1 | 1 to 100% |

# ---- query compound ----
Q: Look at this compound and give its reported activation at 1 µM. `CC(C)COC(=O)N1[C@H](C)CN(C(=O)c2ccc(NS(=O)(=O)c3cccc4cccnc34)cc2)C[C@@H]1C`
A: 1 to 100%

---

Here, each record is paired with measured activation at 1 µM data.
Molecular target: PKR T384W (Homo sapiens, UniProt P30613, T384W)
Sequence (P30613 whole entry T384W): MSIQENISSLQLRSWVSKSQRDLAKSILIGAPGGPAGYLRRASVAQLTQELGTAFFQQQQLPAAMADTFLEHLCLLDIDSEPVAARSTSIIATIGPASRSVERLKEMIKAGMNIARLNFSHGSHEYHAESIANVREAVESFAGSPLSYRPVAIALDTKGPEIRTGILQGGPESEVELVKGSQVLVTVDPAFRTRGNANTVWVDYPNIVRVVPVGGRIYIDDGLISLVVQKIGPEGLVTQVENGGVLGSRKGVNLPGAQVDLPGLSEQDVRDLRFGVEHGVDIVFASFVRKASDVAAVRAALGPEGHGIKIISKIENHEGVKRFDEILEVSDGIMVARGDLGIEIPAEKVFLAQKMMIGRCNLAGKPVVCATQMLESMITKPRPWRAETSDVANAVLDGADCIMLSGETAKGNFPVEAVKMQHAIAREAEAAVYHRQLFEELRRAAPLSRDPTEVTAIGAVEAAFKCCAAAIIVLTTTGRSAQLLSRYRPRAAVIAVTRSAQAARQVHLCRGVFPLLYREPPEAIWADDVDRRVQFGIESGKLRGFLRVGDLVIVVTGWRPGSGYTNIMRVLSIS
Assay: PKR T384W Single Point Percent Activation Assay
Format: biochemical
Settings: read-out: Act. % 384W

For orientation, consider the following solved cases.
| COMPOUND | activation at 1 µM |
| --- | --- |
| CC(c1c(F)cc(F)cc1F)N1CCN(C(=O)c2ccc(NS(=O)(=O)c3cccc4cccnc34)cc2)[C@@H](C)C1 (stereo partly drawn) | 101 to 500% |
| CC1CN(Cc2ccc(F)cc2)CC(C)N1C(=O)c1ccc(NS(=O)(=O)c2cccc3cccnc23)cc1 (stereo not drawn) | 1 to 100% |
| C[C@H]1CN(Cc2cc(F)c(F)c(F)c2)CCN1C(=O)c1ccc(NS(=O)(=O)c2cccc3cccnc23)cc1 | 101 to 500% |

# ---- query compound ----
Q: What activation at 1 µM value was documented for this compound, `C[C@@H]1CN(C(=O)OC2CCOCC2)CCN1C(=O)c1ccc(NS(=O)(=O)c2cccc3cccnc23)cc1` ?
A: 1 to 100%

---

Target: PKR R510Q (Homo sapiens, UniProt P30613, R510Q)
Sequence (P30613 whole entry R510Q): as the sequence (P30613 whole entry R532W) above, with R510Q, W532R counted along it
Assay: PKR Mutant Assay (AC50), PKR R510Q
Assay type: biochemical
MEASURED_PARAMETER: AC50

Answered examples (3):
| COMPOUND | AC50 |
| --- | --- |
| O=C(c1ccc(NS(=O)(=O)c2cccc3cccnc23)cc1)N1CCN(C[C@@H]2CCOC2)CC1 | 101 to 500 nM |
| O=C(c1ccc(NS(=O)(=O)c2cccc3cccnc23)cc1)N1CCN(C[C@H]2CCOC2)CC1 | 101 to 500 nM |
| CC(C)OC(=O)N1CCN(C(=O)c2ccc(NS(=O)(=O)c3cccc4cccnc34)cc2)[C@H](C)C1 | > 500 nM |

Q: Field request: AC50 | item: COc1ccccc1N1CCN(C(=O)c2ccc(NS(=O)(=O)c3cccc4cccnc34)cc2)C(C)C1 (centres unmarked)
A: > 500 nM

Q: // lookup AC50 for CC1CN(Cc2ccccc2)CC(C)N1C(=O)c1ccc(NS(=O)(=O)c2cccc3cccnc23)cc1 (centres unmarked)
A: < 100 nM

---

Molecular target: UniProtKB P30613
Assay: PKR WT Single Point Percent Activation Assay
Format: biochemical
Procedure: PKR WT Single Point Percent Activation Assay A compound described herein was diluted with DMSO and tested at 1 μM concentration. The enzyme was diluted in 1× Buffer: (100 mM KCl, 50 mM Tris 7.5, 5 mM MgCl2, 1 mM DTT, 0.03% BSA). 2 μL of compound solution was first added into wells, and then 180 μL of enzyme solution was added. […] 20 μL ADP was added to start the assay and assay output was evaluated using OD340 at SpectraMax. […]
MEASURED_PARAMETER: activation at 1 µM

# count of solved cases: 3
| COMPOUND | ASSAY_TARGET | activation at 1 µM |
| --- | --- | --- |
| CC(c1cc(F)cc(F)c1)N1CCN(C(=O)c2ccc(NS(=O)(=O)c3cccc4cccnc34)cc2)[C@@H](C)C1 (stereo partly drawn) | UniProtKB P30613 | 1 to 100% |
| C[C@H]1CN(Cc2cc(F)c(F)c(F)c2)CCN1C(=O)c1ccc(NS(=O)(=O)c2cccc3cccnc23)cc1 | UniProtKB P30613 | 1 to 100% |
| C[C@@H]1CN(C[C@H]2CCCO2)CCN1C(=O)c1ccc(NS(=O)(=O)c2cccc3cccnc23)cc1 | UniProtKB P30613 | 101 to 500% |

Q: Provide the documented activation at 1 µM with UniProtKB P30613 as the system for `O=C(c1ccc(NS(=O)(=O)c2cccc3cccnc23)cc1)N1CC2CCC(C1)N2CC1CC1`
A: 1 to 100%

Q: Recorded activation at 1 µM for CC(c1cc(F)c(F)c(F)c1)N1CCN(C(=O)c2ccc(NS(=O)(=O)c3cccc4cccnc34)cc2)[C@H](C)C1 (stereo partly drawn) with UniProtKB P30613, please?
A: 1 to 100%

Q: Give recorded activation at 1 µM with UniProtKB P30613 for the following compound: `C[C@H]1CN(Cc2cc(F)c(F)cc2F)CCN1C(=O)c1ccc(NS(=O)(=O)c2cccc3cccnc23)cc1`
A: 1 to 100%

Q: Form field: activation at 1 µM recorded for `C[C@@H]1CN(C(=O)c2ccc(NS(=O)(=O)c3cccc4cccnc34)cc2)CCN1C(=O)c1ccccn1` with UniProtKB P30613 (enter value)
A: 101 to 500%

Q: Please tell me: activation at 1 µM of `C[C@H]1CN(Cc2ccccc2F)CCN1C(=O)c1ccc(NS(=O)(=O)c2cccc3cccnc23)cc1` , system UniProtKB P30613?
A: 101 to 500%

Q: Record lookup: for UniProtKB P30613, what activation at 1 µM belongs to `O=C(c1ccc(NS(=O)(=O)c2cccc3cccnc23)cc1)N1CCN(Cc2ccc(F)cc2)c2ccccc21` ?
A: 1 to 100%

Q: What is its activation at 1 µM for UniProtKB P30613? Entry: CC1CN(Cc2cc(F)c(F)c(F)c2)CC(C)N1C(=O)c1ccc(NS(=O)(=O)c2cccc3cccnc23)cc1 (stereo not drawn)
A: 1 to 100%

Q: Record lookup: for UniProtKB P30613, what activation at 1 µM belongs to `C[C@H]1CN(Cc2c(F)cc(F)cc2F)CCN1C(=O)c1ccc(NS(=O)(=O)c2cccc3cccnc23)cc1` ?
A: 1 to 100%

Q: Query activation at 1 µM on UniProtKB P30613 for `O=C(c1ccc(NS(=O)(=O)c2cccc3cccnc23)cc1)N1C2CCC1CN(Cc1cc(F)cc(F)c1)C2`
A: 101 to 500%

Q: Find the measured activation at 1 µM: item `CC(C)[C@H]1CN(Cc2ccc(F)cc2)CCN1C(=O)c1ccc(NS(=O)(=O)c2cccc3cccnc23)cc1` , target or system UniProtKB P30613.
A: 1 to 100%

Q: Fill in the recorded activation at 1 µM for this compound, with UniProtKB P30613 as test system: `C[C@@H]1CN(CC2CCCC2)CCN1C(=O)c1ccc(NS(=O)(=O)c2cccc3cccnc23)cc1`
A: 1 to 100%

Q: Provide value of activation at 1 µM for this record tested with UniProtKB P30613: `O=C(c1ccc(NS(=O)(=O)c2cccc3cccnc23)cc1)N1CCn2c(nnc2-c2cc(F)cc(F)c2)C1`
A: 101 to 500%

Q: Lab request: please report activation at 1 µM under test system UniProtKB P30613 for CC(c1c(F)ccc(F)c1F)N1CCN(C(=O)c2ccc(NS(=O)(=O)c3cccc4cccnc34)cc2)[C@@H](C)C1 (stereo partly drawn)
A: 1 to 100%

Q: Recall the recorded activation at 1 µM for CC1CN(CC2CC2)CC(C)N1C(=O)c1ccc(NS(=O)(=O)c2cccc3cccnc23)cc1 (stereo not drawn) with UniProtKB P30613 and state it.
A: 101 to 500%

Q: Tell me reported activation at 1 µM for C[C@@H]1CN(C(=O)OC2CCCOC2)CCN1C(=O)c1ccc(NS(=O)(=O)c2cccc3cccnc23)cc1 (stereo partly drawn) , tested with UniProtKB P30613.
A: 101 to 500%

Q: Test system UniProtKB P30613; read-out activation at 1 µM; what value for C[C@H]1CN(Cc2ccc(F)c(F)c2F)CCN1C(=O)c1ccc(NS(=O)(=O)c2cccc3cccnc23)cc1 [drawing 66] ?
A: 1 to 100%

Q: Any idea what activation at 1 µM came out for `CC[C@H]1CN(Cc2cc(F)cc(F)c2)CCN1C(=O)c1ccc(NS(=O)(=O)c2cccc3cccnc23)cc1` on UniProtKB P30613?
A: 101 to 500%

Q: Please tell me: activation at 1 µM of `C[C@@H]1CN(CC2CC2)CCN1C(=O)c1ccc(NS(=O)(=O)c2cccc3cccnc23)cc1` , system UniProtKB P30613?
A: 101 to 500%

Q: Give the reported activation at 1 µM for `C[C@H]1CN(CC2CCCC2)CCN1C(=O)c1ccc(NS(=O)(=O)c2cccc3cccnc23)cc1Cl` (system: UniProtKB P30613).
A: 1 to 100%

Q: State its activation at 1 µM on UniProtKB P30613: C[C@@H]1CN(CC2CCCCO2)CCN1C(=O)c1ccc(NS(=O)(=O)c2cccc3cccnc23)cc1 (stereo partly drawn)
A: 101 to 500%

Q: Item `C[C@H]1CN(Cc2ccc(Cl)c(F)c2)CCN1C(=O)c1ccc(NS(=O)(=O)c2cccc3cccnc23)cc1Cl` with UniProtKB P30613 - activation at 1 µM?
A: 1 to 100%

Q: Can you look up activation at 1 µM on UniProtKB P30613 for `CC(C)OC(=O)N1CCN(C(=O)c2ccc(NS(=O)(=O)c3cccc4cccnc34)cc2)c2ccccc21` ?
A: 1 to 100%

Q: Lab note: need activation at 1 µM with UniProtKB P30613 for entry CC(c1cc(F)c(F)cc1F)N1CCN(C(=O)c2ccc(NS(=O)(=O)c3cccc4cccnc34)cc2)[C@@H](C)C1 (stereo partly drawn) , please look it up.
A: 101 to 500%

Q: Short answer please: activation at 1 µM, UniProtKB P30613, entry `C[C@@H]1CN(Cc2ccc(F)c(F)c2F)CCN1C(=O)c1ccc(NS(=O)(=O)c2cccc3cccnc23)cc1`
A: 1 to 100%
